- target.desc: human NaV 1.5 (Homo sapiens, UniProt Q14524)
- Sequence (Q14524 whole entry): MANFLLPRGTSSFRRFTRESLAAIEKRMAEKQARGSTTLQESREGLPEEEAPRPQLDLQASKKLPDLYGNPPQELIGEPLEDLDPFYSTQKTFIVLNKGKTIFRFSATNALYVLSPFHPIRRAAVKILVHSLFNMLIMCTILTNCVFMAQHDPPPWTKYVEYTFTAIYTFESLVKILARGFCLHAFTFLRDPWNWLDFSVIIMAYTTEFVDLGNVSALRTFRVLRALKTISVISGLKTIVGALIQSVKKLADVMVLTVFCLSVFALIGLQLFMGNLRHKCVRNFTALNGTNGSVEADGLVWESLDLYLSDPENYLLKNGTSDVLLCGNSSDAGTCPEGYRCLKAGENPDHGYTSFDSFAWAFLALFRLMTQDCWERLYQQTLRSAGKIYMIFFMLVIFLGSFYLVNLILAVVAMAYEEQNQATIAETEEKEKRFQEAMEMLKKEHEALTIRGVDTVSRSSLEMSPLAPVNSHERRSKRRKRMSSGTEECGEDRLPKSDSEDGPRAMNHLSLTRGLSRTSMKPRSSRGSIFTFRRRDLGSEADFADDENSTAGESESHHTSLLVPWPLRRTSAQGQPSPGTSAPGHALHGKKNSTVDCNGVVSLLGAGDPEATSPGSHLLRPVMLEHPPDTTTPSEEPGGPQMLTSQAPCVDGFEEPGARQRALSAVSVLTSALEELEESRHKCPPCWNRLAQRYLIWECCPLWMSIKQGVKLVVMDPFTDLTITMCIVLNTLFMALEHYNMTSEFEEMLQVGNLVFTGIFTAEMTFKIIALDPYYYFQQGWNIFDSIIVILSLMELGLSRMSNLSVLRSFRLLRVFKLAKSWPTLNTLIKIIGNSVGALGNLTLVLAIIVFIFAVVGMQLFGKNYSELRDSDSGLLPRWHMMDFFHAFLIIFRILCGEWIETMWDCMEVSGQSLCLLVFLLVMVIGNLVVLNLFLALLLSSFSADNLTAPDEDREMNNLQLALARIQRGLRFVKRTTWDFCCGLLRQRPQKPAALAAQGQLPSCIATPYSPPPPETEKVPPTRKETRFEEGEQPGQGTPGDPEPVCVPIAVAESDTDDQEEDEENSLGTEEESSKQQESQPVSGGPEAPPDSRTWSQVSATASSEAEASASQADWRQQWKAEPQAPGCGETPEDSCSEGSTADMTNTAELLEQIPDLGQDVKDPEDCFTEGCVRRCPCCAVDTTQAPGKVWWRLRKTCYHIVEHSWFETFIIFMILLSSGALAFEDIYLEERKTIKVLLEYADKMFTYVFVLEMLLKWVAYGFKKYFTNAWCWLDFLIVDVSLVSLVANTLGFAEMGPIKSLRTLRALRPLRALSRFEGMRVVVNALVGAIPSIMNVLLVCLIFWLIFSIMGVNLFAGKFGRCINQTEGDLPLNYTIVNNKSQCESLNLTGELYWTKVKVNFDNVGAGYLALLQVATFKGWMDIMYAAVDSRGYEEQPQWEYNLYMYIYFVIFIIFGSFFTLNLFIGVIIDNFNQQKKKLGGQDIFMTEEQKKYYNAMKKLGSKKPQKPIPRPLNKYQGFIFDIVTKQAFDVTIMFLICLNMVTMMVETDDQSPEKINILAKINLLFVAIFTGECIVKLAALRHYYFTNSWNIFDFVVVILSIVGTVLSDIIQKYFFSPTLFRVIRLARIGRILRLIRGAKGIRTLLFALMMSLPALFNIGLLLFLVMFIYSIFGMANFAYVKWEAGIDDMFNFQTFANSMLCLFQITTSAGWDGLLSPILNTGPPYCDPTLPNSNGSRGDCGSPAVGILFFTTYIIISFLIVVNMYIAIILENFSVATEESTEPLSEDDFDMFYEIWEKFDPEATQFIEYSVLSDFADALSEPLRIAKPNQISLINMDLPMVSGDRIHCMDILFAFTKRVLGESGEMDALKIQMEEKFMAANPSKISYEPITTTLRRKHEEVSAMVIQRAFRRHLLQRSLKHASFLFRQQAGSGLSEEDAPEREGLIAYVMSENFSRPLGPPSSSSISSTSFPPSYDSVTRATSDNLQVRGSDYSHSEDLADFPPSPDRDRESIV
- test.details: Electrophysiology, IonWorks Barracuda, NaV channel block in CHO cells
- assay.context: IC50 TP2 (inactivated state), Nav1.5, CHO cells, 5 min exposure, ambient temperature
Structures can show the parent of a compound that is named as a salt.
reported.property: IC50 (nM)

INSERT INTO results (molecule, result_unit, value) VALUES
  ('COC(=O)[C@H](c1ccc(-c2ccccc2)cc1)[C@@H]1C=CCCN1.Cl [EXAMPLE 1C, hydrochloride]', 'nM', 1500),
  ('COC(=O)[C@H](c1ccc(-c2ccccc2)cc1)[C@@H]1C=CCCN1 (racemic)', 'nM', 1200),
  ('COC(=O)[C@@H](c1ccc(-c2ccccc2)cc1)[C@H]1C=CCCN1 [EXAMPLE 1D, hydrochloride]', 'nM', 2000);
